# System: OVCAR-8
# ASSAY NOTES: NCI tumour cell line growth inhibition, 48 h
The source made the active and inactive calls. No stated cut-off is given here; in the data, active = GI50 up to about 1.1 µM and inactive = higher.
I'd be grateful if you could share measured GI50 for these entries.

>>> observed("CN(C)CCSc1cc(-c2ccccc2)c2ccccc2n1")
"19.1 µM (inactive)"
>>> observed("O=C1CSC(c2cccs2)N1c1nc2cc3sc(N4C(=O)CSC4c4cccs4)nc3cc2s1 (stereo not given)")
"> 50 µM (inactive)"
>>> observed("O=C1c2cccc3cccc(c23)C(=O)N1CCCNCCCCNCCCN1C(=O)c2cccc3cccc(c23)C1=O")
"0.177 µM (active)"
>>> observed("COc1cc2c(c(OC)c1OC)-c1ccc(SC)c(=O)cc1[C@@H](NCc1cccc(C#N)c1)CC2")
"0.0222 µM (active)"
>>> observed("CCOC(=O)C1(C)CCC(C(=O)OC)C1=O (stereo not given)")
"> 100 µM (inactive)"

List the reported GI50 of each compound below.
1. CNC(=O)c1ccccc1[S+]1c2cccc3cccc(c23)C(=O)N1C (stereo not given)
2. CSc1cc(=O)n2c3ccccc3c3ccnc1c32

Result block:
1: > 100 µM (inactive); 2: > 67.9 µM (inactive)

List the reported GI50 of each compound below.
1. CCOC(=O)/C(C#N)=C\c1ccc(N(CCC(=O)O)CCC(=O)O)c(I)c1
2. COc1ccc(CC[N+]2(C)COc3cc4oc(=O)cc(C)c4cc3C2)cc1OC (stereo not given)
3. C/C(=N\NC(=[Se])N1CCN(c2ccccn2)CC1)c1ccccn1

Result block:
1: > 10 µM (inactive); 2: > 100 µM (inactive); 3: 0.01 µM (active)

###

# Tested on: OVCAR-8
# ASSAY NOTES: NCI tumour cell line growth inhibition, 48 h
Active and inactive are the calls of the source. Rule as the data show it: active = GI50 up to about 1.1 µM and inactive = higher. *1 amine or outer side, *2 acyl side, *3 side chain or, on linkers, in order; H or OH if unused. Where a SMILES comes first, the peptide text is derived from it. Bridges are numbered along the chain shown (N, C = ends). [ ]: non-standard residue; d: D form. The star is where a group is joined. X36 = O=C(C(CCCCNO[*:3])N[*:1])[*:2]; Fmoc = O=C(OCC1c2ccccc2-c2ccccc21)*
Can you answer with just one of these options? Y for active, N for inactive

>>> label_class("COc1ccccc1/C=C1\\Sc2scc(-c3cccc([N+](=O)[O-])c3)[n+]2C1=O")
"N"
>>> label_class("OCC(O)COc1ccc(Br)cc1 (centres undefined)")
"N"
>>> label_class("NC(=O)CNC(=O)C1CCCN1C(=O)C1CCCCNOC(=O)CCC(NC(=O)OCC2c3ccccc3-c3ccccc32)C(=O)NC(Cc2c[nH]c3ccccc23)C(=O)N1 (centres undefined) (Fmoc-EW[X36]PG-NH2; ester 1-3; configuration not given here)")
"N"
>>> label_class("CC(=O)c1ccc(Oc2ccc(/C(C)=N\\N=C(N)N)cc2)cc1")
"N"
>>> label_class("O=C(Oc1cc(=O)c(OC(=O)c2ccccc2)co1)c1ccccc1")
"N"

# ---- query molecule ----
Query block: Assay result, entry O=N/N=c1\o[n-][n+](CCc2ccccc2)c1Cc1/c(=N/N=O)o[n-][n+]1CCc1ccccc1 — outcome?
Result block: N

###

# Tested on: U-251
# ASSAY NOTES: NCI tumour cell line growth inhibition, 48 h
Active and inactive are the calls of the source. Rule as the data show it: active = GI50 up to about 1.1 µM and inactive = higher.
I'd be grateful if you could share measured GI50 for these entries.

The following compounds have reported results that may help.
>>> observed("NC(Cc1ccccc1CP(=O)(O)O)C(=O)O (stereo not given)")
"> 100 µM (inactive)"
>>> observed("CCCN1C(=O)CC(C)N(Cc2ccccc2Cl)C1=S (stereo not given)")
"24 µM (inactive)"
>>> observed("Cc1cc(C)c(C[C@H]2COC(=O)[C@]2(O)Cc2c(C)cc(C)cc2C)c(C)c1")
"18.9 µM (inactive)"
>>> observed("COc1ccc(C[P+]2(c3ccccc3)CCCCC2)cc1.O=[N+]([O-])c1ccc(C[P+]2(c3ccccc3)CCCCC2)cc1.[O-][Cl+3]([O-])([O-])[O-].[O-][Cl+3]([O-])([O-])[O-]")
"> 100 µM (inactive)"

In the following, a different compound is considered.
Query block: Return GI50 (reported value) for this compound: CCOC(=O)N1N(c2ccccc2)C(=O)C1(c1ccccc1)c1ccccc1
Result block: 89.1 µM (inactive)

###

# Test system: TK-10
# ASSAY NOTES: NCI tumour cell line growth inhibition, 48 h
Activity calls are given as the source filed them. No stated cut-off is given here; in the data, active = GI50 up to about 1.1 µM and inactive = higher. Where a SMILES comes first, the peptide text is derived from it. The star is where a group is joined. Fmoc = O=C(OCC1c2ccccc2-c2ccccc21)*; Boc = CC(C)(C)OC(=O)*
I'd be grateful if you could share measured GI50 for these entries.

The following compounds have reported results that may help.
>>> observed("CCOC(=O)c1c(CN2CCNCC2)nc2ccccc2c1-c1ccccc1")
"14.3 µM (inactive)"
>>> observed("COc1cc2cc3c4c(cc(OC)c(OC)c4c2cc1OC)CCN3C(=O)CCCC(=O)O")
"> 100 µM (inactive)"

List the reported GI50 of each compound below.
1. O=C(O)c1c2c(c(O)c3c1CN(C1CCCCC1)CO3)OCN(C1CCCCC1)C2
2. Cc1n[nH]c(=O)n1/N=C/c1ccc([N+](=O)[O-])o1
3. COc1ccc(C[P+]2(c3ccccc3)CCCCC2)cc1.O=[N+]([O-])c1ccc(C[P+]2(c3ccccc3)CCCCC2)cc1.[O-][Cl+3]([O-])([O-])[O-].[O-][Cl+3]([O-])([O-])[O-]
4. CCOC(=O)COC1=Nc2cc(OC)c(OC)c3nc(Cl)cc(c23)C1=O
5. CC(C)(C)OC(=O)NCCCCC(NC(=O)C(Cc1c[nH]c2ccccc12)NC(=O)OCC1c2ccccc2-c2ccccc21)C(=O)O (stereo unspecified) (Fmoc-Trp-Lys(Boc)-OH; configuration not given here)
6. C/C(=N/NC(=O)c1ccncc1)C(F)(F)F
7. CCOC(=O)c1nc2ccc(C(F)(F)F)cc2nc1NCc1ccc(F)cc1
8. O=C1[C@@H](O)[C@@H]2CCCC[C@@]23CCCN13

Result block:
1: > 100 µM (inactive); 2: 18.1 µM (inactive); 3: > 100 µM (inactive); 4: 1.96 µM (inactive); 5: > 100 µM (inactive); 6: > 100 µM (inactive); 7: 27.9 µM (inactive); 8: > 100 µM (inactive)

List the reported GI50 of each compound below.
1. O=C1CCC(=O)N1Cc1ccccc1/N=[N+](\[O-])c1ccccc1CN1C(=O)CCC1=O
2. C[C@]12CC=CC(=O)[C@@]1(C)CCC(=O)C2
3. COc1ccccc1/C=C1\Sc2scc(-c3cccc([N+](=O)[O-])c3)[n+]2C1=O
4. Cc1ccc(S(=O)(=O)N2CC3OC(C)(C)OC3C2CO)cc1 (stereo unspecified)

Result block:
["> 100 µM (inactive)", "> 100 µM (inactive)", "2.83 µM (inactive)", "> 100 µM (inactive)"]

List the reported GI50 of each compound below.
1. CC(=O)c1ccc(Oc2ccc(/C(C)=N\N=C(N)N)cc2)cc1
2. COC(OC)C(O)C1OC=CC1n1cnc2c(N)ncnc21 (stereo unspecified)
3. NNC(=O)C1(NC(=O)c2ccccc2)C(c2ccccc2)C(c2ccccc2)=NN1c1ccccc1 (stereo unspecified)
4. COc1ccc(/C=C/CO)cc1OC

Result block:
3.28 µM (inactive)
> 100 µM (inactive)
58.2 µM (inactive)
> 100 µM (inactive)

List the reported GI50 of each compound below.
1. O=C1CCC(O)=C1O
2. O=C(CO)CC(=O)C(=O)Nc1ccccc1

Result block:
> 100 µM (inactive)
> 100 µM (inactive)

Query block: Return GI50 (reported value) for this compound: COc1cc(C=C2C(=O)NC(=S)NC2=O)cc(OC)c1OC
Result block: > 100 µM (inactive)

###

# System: MDA-N
# ASSAY NOTES: NCI tumour cell line growth inhibition, 48 h
Activity calls are given as the source filed them. No stated cut-off is given here; in the data, active = GI50 up to about 1.1 µM and inactive = higher.
I'd be grateful if you could share measured GI50 for these entries.

The following compounds have reported results that may help.
>>> observed("COc1cc2oc(-c3ccc(O)cc3)cc(=O)c2c(OC)c1OC")
"> 100 µM (inactive)"
>>> observed("CC[C@]12C=CCN3CC[C@@]4(c5cc(Br)c(OC)cc5N(C)[C@H]4[C@@](O)(C(=O)N[C@@H](Cc4ccc(O)cc4)C(=O)OC)[C@@H]1O)[C@@H]32")
"20 µM (inactive)"
>>> observed("Nc1ncnc2c1nnn2C1CCC(CP(=O)(O)O)C1 (stereo not given)")
"> 100 µM (inactive)"
>>> observed("CC1(C)C2C=CC1(C)C1(CC2)OCCO1 (stereo not given)")
"> 100 µM (inactive)"
>>> observed("c1ccc2c(c1)cc1n2CCc2c-1[nH]c1ccccc21")
"> 10 µM (inactive)"
>>> observed("c1ccc(NNC2=NCCN2)cc1")
"> 100 µM (inactive)"

List the reported GI50 of each compound below.
1. Cc1n[nH]c(=O)n1/N=C/c1ccc(Cl)cc1
2. NC(Cc1ccccc1CP(=O)(O)O)C(=O)O (stereo not given)
3. CCCN(C(=O)c1c(Cl)nnc(Cl)c1C(=O)c1cc(Cl)nnc1Cl)c1cc(Cl)nnc1Cl

Result block:
1: > 100 µM (inactive); 2: > 100 µM (inactive); 3: 6.7 µM (inactive)

List the reported GI50 of each compound below.
1. O=C(c1cccs1)N(C(=S)OCc1ccccn1)c1ccccc1
2. Cc1cc2cc3c(cc2c(-c2ccc([N+](=O)[O-])cc2)n1)OCO3
3. CC1=NNC(=O)C1C1CC(c2c[nH]c3ccccc23)=NN=C1Cl (stereo not given)
4. O=C1O[C@H]2[C@H](OC(=O)c3cc(O)c(O)c(O)c3)[C@@H](OC(=O)c3cc(O)c(O)c4c3[C@@H]3C1=CC(=O)C(O)(O)C3(O)O4)[C@H](OC(=O)c1cc(O)c(O)c(O)c1)O[C@@H]2COC(=O)c1cc(O)c(O)c(O)c1 (stereo not given in full) [TERCHEBIN]

Result block:
["> 100 µM (inactive)", "54.2 µM (inactive)", "54.7 µM (inactive)", "53.5 µM (inactive)"]
